Substrate: N[C@@H](Cc1ccccc1)C(=O)O
Assay: purified protein
Format: biochemical, Halalkalibacterium halodurans
Settings: oxidative deamination, 2 mM NAD+, 50 mM glycine-KCl-KOH pH 10.4, 25°C
ENDPOINT NAME: kcat (s⁻¹)
Numbers only, in s⁻¹.

Below are worked cases with known answers.
PheDH (Halalkalibacterium halodurans C-125; E113D/N276L) (protein) MLTKTPTVTSTLDIFTEMAEHEQVLFCHDPSSGLRAIIAIHDTTLGPALGGCRMYPYQTTEDALRDVLRLSKGMTQKCAAADVDFGGGKAVIIGDPAKDKSANLFRAFGQFVDSLNGRFYTGTDMGTTMEDFVHALKETNGIVGIPKEYGGSGDSSVPTAKGVINSLKAISQVVLKDKQFSGRTYAIQGLGKVGFKVAEELLKEGNDLYVSDLQESLPLRLQQLGQRLGRHVEILHGDEIYEAAADVFVPCAQGAILNDATIARLKVKAIAGAANLQLEAERHGQMLHDQGIWFAPDYIVNSGGLIQVADELYGSNEKRVLSKTNAIYDTILEIFHQAERHHITTLQAANQLCERRIRERARRNNFFVNRIRPKWNLRK = 11.26
PheDH (Halalkalibacterium halodurans C-125) (protein) MLTKTPTVTSTLDIFTEMAEHEQVLFCHDPSSGLRAIIAIHDTTLGPALGGCRMYPYQTTEDALRDVLRLSKGMTQKCAAADVDFGGGKAVIIGDPAKDKSANLFRAFGQFVESLNGRFYTGTDMGTTMEDFVHALKETNGIVGIPKEYGGSGDSSVPTAKGVINSLKAISQVVLKDKQFSGRTYAIQGLGKVGFKVAEELLKEGNDLYVSDLQESLPLRLQQLGQRLGRHVEILHGDEIYEAAADVFVPCAQGAILNDATIARLKVKAIAGAANNQLEAERHGQMLHDQGIWFAPDYIVNSGGLIQVADELYGSNEKRVLSKTNAIYDTILEIFHQAERHHITTLQAANQLCERRIRERARRNNFFVNRIRPKWNLRK = 2.4847
PheDH (Halalkalibacterium halodurans C-125; E113D) (protein) MLTKTPTVTSTLDIFTEMAEHEQVLFCHDPSSGLRAIIAIHDTTLGPALGGCRMYPYQTTEDALRDVLRLSKGMTQKCAAADVDFGGGKAVIIGDPAKDKSANLFRAFGQFVDSLNGRFYTGTDMGTTMEDFVHALKETNGIVGIPKEYGGSGDSSVPTAKGVINSLKAISQVVLKDKQFSGRTYAIQGLGKVGFKVAEELLKEGNDLYVSDLQESLPLRLQQLGQRLGRHVEILHGDEIYEAAADVFVPCAQGAILNDATIARLKVKAIAGAANNQLEAERHGQMLHDQGIWFAPDYIVNSGGLIQVADELYGSNEKRVLSKTNAIYDTILEIFHQAERHHITTLQAANQLCERRIRERARRNNFFVNRIRPKWNLRK = 12.193

Lab note: next protein to report on.
# query: kcat of entry PheDH (Halalkalibacterium halodurans C-125; N276L) (protein) MLTKTPTVTSTLDIFTEMAEHEQVLFCHDPSSGLRAIIAIHDTTLGPALGGCRMYPYQTTEDALRDVLRLSKGMTQKCAAADVDFGGGKAVIIGDPAKDKSANLFRAFGQFVESLNGRFYTGTDMGTTMEDFVHALKETNGIVGIPKEYGGSGDSSVPTAKGVINSLKAISQVVLKDKQFSGRTYAIQGLGKVGFKVAEELLKEGNDLYVSDLQESLPLRLQQLGQRLGRHVEILHGDEIYEAAADVFVPCAQGAILNDATIARLKVKAIAGAANLQLEAERHGQMLHDQGIWFAPDYIVNSGGLIQVADELYGSNEKRVLSKTNAIYDTILEIFHQAERHHITTLQAANQLCERRIRERARRNNFFVNRIRPKWNLRK
8.8435
